test-system: Mitogen-activated protein kinase 8 (Homo sapiens, UniProt P45983)
Sequence (P45983 whole entry): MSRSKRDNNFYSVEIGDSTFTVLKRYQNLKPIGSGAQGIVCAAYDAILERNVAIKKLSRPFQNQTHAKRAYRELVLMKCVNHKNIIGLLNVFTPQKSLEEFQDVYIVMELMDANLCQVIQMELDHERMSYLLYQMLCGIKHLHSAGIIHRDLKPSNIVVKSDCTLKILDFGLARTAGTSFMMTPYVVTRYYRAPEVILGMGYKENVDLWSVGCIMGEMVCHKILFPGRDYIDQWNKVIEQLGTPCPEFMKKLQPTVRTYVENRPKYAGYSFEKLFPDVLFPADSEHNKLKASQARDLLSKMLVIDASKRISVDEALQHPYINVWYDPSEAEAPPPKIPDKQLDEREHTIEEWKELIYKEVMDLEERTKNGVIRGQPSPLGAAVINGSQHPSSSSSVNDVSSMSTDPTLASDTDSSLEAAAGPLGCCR
assay-info: Inhibition of JNK1
readout-kind: IC50

INSERT INTO measurements (smiles_text, readout_kind, result) VALUES
  ('Nc1nn(-c2cccc(-c3ccc4cc[nH]c4c3)c2)cc1-c1ccc2c(c1)CCNC2=O', 'IC50', '> 10 µM');

====

assay-info: Drug level in OF1 mouse blood at 30 mg/kg, po after 1 hr
Type: ADME, organism-based, OF
Set-up: dose 30 mg/kg, route oral
setup-conditions: read-out: Drug uptake
readout-kind: concentration at 1 h (nM)

INSERT INTO measurements (smiles_text, readout_kind, unit_text, number) VALUES
  ('Nc1nn(-c2cccc(-c3ccc4cc[nH]c4c3)c2)cc1-c1ccc2c(c1)CCNC2=O', 'concentration at 1 h', 'nM', 1700);

====

assay-info: Drug level in po dosed OF1 mouse blood after 4 hr
Type: ADME, organism-based, OF
setup-conditions: read-out: Drug uptake
readout-kind: concentration at 4 h (µM)

INSERT INTO results (smiles_text, readout_kind, unit_text, number) VALUES
  ('Nc1nn(-c2cccc(-c3ccc4cc[nH]c4c3)c2)cc1-c1ccc2c(c1)CCNC2=O', 'concentration at 4 h', 'µM', 6.8);

====

assay-info: Drug level in OF1 mouse blood at 100 mg/kg, po after 1 hr
Assay type: ADME, organism-based, OF
Set-up: dose 100 mg/kg, route oral
setup-conditions: read-out: Drug uptake
readout-kind: concentration at 1 h

INSERT INTO assay_data (smiles_text, result) VALUES
  ('Nc1nn(-c2cccc(-c3ccc4cc[nH]c4c3)c2)cc1-c1ccc2c(c1)CCNC2=O', '17.4 µM');

====

test-system: Mitogen-activated protein kinase 9 (Homo sapiens, UniProt P45984)
Sequence (P45984 whole entry): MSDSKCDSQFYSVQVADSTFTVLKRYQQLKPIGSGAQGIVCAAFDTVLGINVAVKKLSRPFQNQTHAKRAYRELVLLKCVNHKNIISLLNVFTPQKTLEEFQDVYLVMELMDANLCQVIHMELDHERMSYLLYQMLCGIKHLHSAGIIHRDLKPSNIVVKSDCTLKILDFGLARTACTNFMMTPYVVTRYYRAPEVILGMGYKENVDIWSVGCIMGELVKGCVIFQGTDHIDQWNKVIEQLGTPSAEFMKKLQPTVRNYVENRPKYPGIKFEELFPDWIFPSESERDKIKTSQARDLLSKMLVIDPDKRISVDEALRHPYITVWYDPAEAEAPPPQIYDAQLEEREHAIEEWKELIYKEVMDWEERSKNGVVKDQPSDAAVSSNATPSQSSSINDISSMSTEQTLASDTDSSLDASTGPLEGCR
assay-info: Inhibition of JNK2
pIC50: −log10 of the molar value.
readout-kind: pIC50

INSERT INTO measurements (smiles_text, test_system, readout_kind, result) VALUES
  ('Nc1nn(-c2cccc(-c3ccc4cc[nH]c4c3)c2)cc1-c1ccc2c(c1)CCNC2=O', 'Mitogen-activated protein kinase 9 (Homo sapiens, UniProt P45984)', 'pIC50', '< 5.00');

====

assay-info: Permeability from apical to basolateral side in human Caco-2 cells
Format: ADME, cell-based
readout-kind: Papp A→B (×10⁻⁶ cm/s)

INSERT INTO assay_data (smiles_text, number) VALUES
  ('COc1ccc(-n2cc(-c3ccc4c(c3)C(=O)NCC4)c(N)n2)cc1', 48.3);

====

assay-info: Drug level in po dosed OF1 mouse blood after 1 hr
Type: ADME, organism-based, OF
setup-conditions: read-out: Drug uptake
readout-kind: concentration at 1 h (µM)

INSERT INTO results (smiles_text, readout_kind, number) VALUES
  ('Nc1nn(-c2cccc(-c3ccc4cc[nH]c4c3)c2)cc1-c1ccc2c(c1)CCNC2=O', 'concentration at 1 h', 14.1);

====

assay-info: Drug level in po dosed OF1 mouse blood after 6 hr
Type: ADME, organism-based, OF
setup-conditions: read-out: Drug uptake
readout-kind: concentration at 6 h

INSERT INTO results (smiles_text, result) VALUES
  ('Nc1nn(-c2cccc(-c3ccc4cc[nH]c4c3)c2)cc1-c1ccc2c(c1)CCNC2=O', '25.8 µM');

This collection of values is drawn from ChEMBL document CHEMBL1159125.
